Test system: NCI-H1944
Experiment: relative viability (nuclei count vs DMSO), 5 days (fraction); higher = more cells survive
Conditions: first compound 0.4 µM
What relative viability was measured for each of the following?
Numbers only.

Some entries whose results are on file:
>  <compound>
C[C@@H]1CN(CC(=O)Nc2ccc3c(c2)Cc2cccc(-c4cc(=O)cc(N5CCOCC5)o4)c2S3)C[C@H](C)O1 + Cc1nc(NC(=O)N2CCC[C@H]2C(N)=O)sc1-c1ccnc(C(C)(C)C(F)(F)F)c1 [Alpelisib] (partner 2 µM)

>  <endpoint.label>
relative viability

>  <reading>
0.86

$$$$
>  <compound>
C[C@@H]1CN(CC(=O)Nc2ccc3c(c2)Cc2cccc(-c4cc(=O)cc(N5CCOCC5)o4)c2S3)C[C@H](C)O1 + O=C(CCCCCCC(=O)Nc1ccccc1)NO [Vorinostat] (partner 1 µM)

>  <endpoint.label>
relative viability

>  <reading>
0.594

$$$$
>  <compound>
COc1cc(N2CCC(C(N)=O)CC2)ccc1Nc1nc(N)c(Cl)c(Nc2ccccc2S(=O)(=O)C(C)C)n1 [HG-5-88-01] + CS(=O)(=O)CCNCc1ccc(-c2ccc3ncnc(Nc4ccc(OCc5cccc(F)c5)c(Cl)c4)c3c2)o1 [Lapatinib] (partner 2 µM)

>  <endpoint.label>
relative viability

>  <reading>
0.78

$$$$

Below is a list of compounds. For each, state its recorded relative viability.
1. COc1cc(N2CCC(C(N)=O)CC2)ccc1Nc1nc(N)c(Cl)c(Nc2ccccc2S(=O)(=O)C(C)C)n1 [HG-5-88-01] + COc1cccc2cc(-c3nc([C@H]4CC[C@H](C(=O)O)CC4)n4ncnc(N)c34)[nH]c12 [OSI-027] (partner 0.5 µM)
2. Clc1ccc(Nc2nnc(Cc3ccncc3)c3ccccc23)cc1 [Vatalanib] + O=C(c1cc(Cc2n[nH]c(=O)c3ccccc23)ccc1F)N1CCN(C(=O)C2CC2)CC1 [Olaparib] (partner 8 µM)
3. Clc1ccc(Nc2nnc(Cc3ccncc3)c3ccccc23)cc1 [Vatalanib] + CC1(C)CCC(c2ccc(Cl)cc2)=C(CN2CCN(c3ccc(C(=O)NS(=O)(=O)c4ccc(N[C@H](CCN5CCOCC5)CSc5ccccc5)c(S(=O)(=O)C(F)(F)F)c4)cc3)CC2)C1 [Navitoclax] (partner 0.5 µM)
4. C[C@@H]1CN(CC(=O)Nc2ccc3c(c2)Cc2cccc(-c4cc(=O)cc(N5CCOCC5)o4)c2S3)C[C@H](C)O1 + CC(=O)c1c(C)c2cnc(Nc3ccc(N4CCNCC4)cn3)nc2n(C2CCCC2)c1=O [Palbociclib] (partner 0.5 µM)
5. Clc1ccc(Nc2nnc(Cc3ccncc3)c3ccccc23)cc1 [Vatalanib] + Cc1cc(Nc2cc(N3CCN(C)CC3)nc(Sc3ccc(NC(=O)C4CC4)cc3)n2)n[nH]1 [Tozasertib] (partner 0.1 µM)

0.422
0.417
1.06
0.344
0.262

* * *

So I've got a bunch of compounds here, and I need their relative viability values.
System: LCLC-97TM1
Assay: relative viability (nuclei count vs DMSO), 5 days (fraction); higher = more cells survive
Conditions: first compound 0.1265 µM
Give bare numbers.

Give me relative viability for each of these compounds, listed below.
1. Clc1ccc(Nc2nnc(Cc3ccncc3)c3ccccc23)cc1 [Vatalanib] + CC1(C)CCC(c2ccc(Cl)cc2)=C(CN2CCN(c3ccc(C(=O)NS(=O)(=O)c4ccc(N[C@H](CCN5CCOCC5)CSc5ccccc5)c(S(=O)(=O)C(F)(F)F)c4)cc3)CC2)C1 [Navitoclax] (partner 0.5 µM)
2. Clc1ccc(Nc2nnc(Cc3ccncc3)c3ccccc23)cc1 [Vatalanib] + Nc1ncn([C@H]2C[C@H](O)[C@@H](CO)O2)c(=O)n1 [Decitabine] (partner 2 µM)

1: 0.511; 2: 0.19

Data credit: the supplement of paper PMC10307832
